The following compounds are listed with their measured IC50 values.
Tested on: ULK kinase
ASSAY_TEXT: pATG13 levels of mutant HRas T24 cells after treatment with ULK inhibitors in combination with trametinib (ELISA)
Format: cell-based, human
COND: T24 urinary bladder cancer cells (mutant HRas), 250 nM trametinib, overnight, pS318-ATG13

{"columns": ["LINE_NOTATION", "IC50"],
 "data": [
  ["CCc1cc(N2CC3CCC(C2)N3C)ccc1Nc1ncc(C(F)(F)F)c(NCCCN2CCOCCC2=O)n1", "10 to 100 nM"],
  ["CCc1cc(N2CCN(C)CC2)ccc1Nc1ncc(Br)c(NCCCN2CCOCCC2=O)n1", "10 to 100 nM"],
  ["CN1CCN(c2ccc(Nc3ncc(C(F)(F)F)c(NCCCN4CCCCC4=O)n3)c(C3CC3)c2)CC1", "10 to 100 nM"],
  ["CN1CCN(c2ccc(Nc3ncc(C(F)(F)F)c(NCCCN4CCOCCC4=O)n3)c(C3CC3)c2)CC1", "10 to 100 nM"],
  ["O=C1OCCCN1CCCNc1nc(Nc2ccc(N3CCNCC3)cc2C2CC2)ncc1C(F)(F)F", "100 to 300 nM"],
  ["CCc1cc(N2CCN(C)CC2)ccc1Nc1ncc(C(F)(F)F)c(NCCCN2CCCOC2=O)n1", "10 to 100 nM"],
  ["O=C1CCCCN1CCCNc1nc(Nc2ccc(N3CCNCC3)cc2C2CC2)ncc1C(F)(F)F", "100 to 300 nM"]
]}

---

ASSAY_SYSTEM: ULK1 kinase (Homo sapiens, UniProt O75385, E37A/K38A)
ASSAY_TEXT: Biochemical assay for ULK1.3 (coupled pyruvate kinase/lactate dehydrogenase assay, peptide substrate)
COND: 0.1 nM ULK1 (residues 1-283), 1 mM ATP
Protocol: Biochemical Assay for ULK1.3 (SEQ. ID NO: 2) Inhibition of ULK1 was measured by adding serial diluted test compound (final assay concentration of 1% DMSO). A decrease in absorption at 340 nm was monitored continuously for 6 hours at 30° C. on a multi-mode microplate reader (BioTek). The reaction rate was calculated using the 2-3 h time frame. […]
PROPERTY_LABEL: IC50

{"columns": ["LINE_NOTATION", "PROPERTY_LABEL", "OBSERVED_MEASUREMENT"],
 "data": [
  ["CCc1cc(N2CCCN(C)CC2)ccc1Nc1ncc(C(F)(F)F)c(NCCCN2CCCOCC2=O)n1", "IC50", "25 to 100 nM"],
  ["CN1CCN(c2ccc(Nc3ncc(Cl)c(NCCCN4CCCCC4=O)n3)c(C3CC3)c2)CC1", "IC50", "25 to 100 nM"],
  ["CCc1cc(N2C[C@H]3C[C@@H]2CN3C)ccc1Nc1ncc(C(F)(F)F)c(NCCCN2CCCOC2=O)n1", "IC50", "1 to 25 nM"],
  ["O=C1OCCCN1CCCNc1nc(Nc2ccc(N3CCNCC3)cc2C2CC2)ncc1C(F)(F)F", "IC50", "1 to 25 nM"],
  ["CCN1CCN(c2ccc(Nc3ncc(Cl)c(NCCCN4CCCCC4=O)n3)c(C(C)C)c2)CC1", "IC50", "100 to 500 nM"],
  ["CN1CCN(c2ccc(Nc3ncc(Cl)c(NCCCN4CCOCCC4=O)n3)c(C3CC3)c2)CC1", "IC50", "25 to 100 nM"],
  ["CCc1cc(N2CC3CCC(C2)N3C)ccc1Nc1ncc(C(F)(F)F)c(NCCCN2CC(C)(C)C2=O)n1", "IC50", "> 500 nM"],
  ["CCN1CCN(c2ccc(Nc3ncc(Br)c(NCCCN4CCCCC4=O)n3)c(C(C)C)c2)CC1", "IC50", "25 to 100 nM"],
  ["CN1CCN(c2ccc(Nc3ncc(C(F)(F)F)c(NCCCN4CCCOCC4=O)n3)c(C3CC3)c2)CC1", "IC50", "1 to 25 nM"],
  ["CN1CCN(c2ccc(Nc3ncc(C(F)(F)F)c(NCCCN4CCOCCC4=O)n3)c(C3CC3)c2)CC1", "IC50", "1 to 25 nM"]
]}

---

ASSAY_SYSTEM: ULK1 kinase (Homo sapiens, UniProt O75385, E37A/K38A)
Sequence (O75385 1-283 E37A/K38A): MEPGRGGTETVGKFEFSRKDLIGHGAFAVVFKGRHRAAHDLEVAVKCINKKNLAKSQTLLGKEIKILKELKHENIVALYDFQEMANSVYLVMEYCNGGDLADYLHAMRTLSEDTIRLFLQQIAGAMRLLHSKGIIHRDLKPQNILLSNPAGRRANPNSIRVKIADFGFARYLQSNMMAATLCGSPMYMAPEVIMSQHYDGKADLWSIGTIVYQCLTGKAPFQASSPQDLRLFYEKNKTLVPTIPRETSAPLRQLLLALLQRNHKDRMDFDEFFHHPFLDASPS
ASSAY_TEXT: Biochemical assay for ULK1.3 (coupled pyruvate kinase/lactate dehydrogenase assay, peptide substrate)
COND: 0.1 nM ULK1 (residues 1-283), 1 mM ATP
The following compounds are listed with their measured IC50 values.

{"columns": ["LINE_NOTATION", "IC50"],
 "data": [
  ["CCc1cc(N2CC3CCC(C2)N3C)ccc1Nc1ncc(C(F)(F)F)c(NCCCN2CCC(C)(C)OC2=O)n1", "100 to 500 nM"],
  ["CCc1cc(N2CCN(C)CC2)ccc1Nc1cc(NCCCN2CCOCCC2=O)c(C(F)(F)F)cn1", "1 to 25 nM"],
  ["CN1CCN(c2ccc(Nc3ncc(C(F)(F)F)c(NCCCN4CCCOC4=O)n3)c(C(C)(C)O)c2)CC1", "100 to 500 nM"],
  ["CN1CCN(c2cc(C3CC3)c(Nc3ncc(C(F)(F)F)c(NCCCN4CCCCC4=O)n3)cc2F)CC1", "25 to 100 nM"],
  ["CCc1cc(N2CCN(C)CC2)ccc1Nc1ncc(Br)c(NCCCN2CCCOC2=O)n1", "1 to 25 nM"],
  ["CCc1cc(N2CC(CN(C)C)C2)ccc1Nc1ncc(C(F)(F)F)c(NCCCN2CCOCCC2=O)n1", "1 to 25 nM"],
  ["CN1C[C@@H]2C[C@H]1CN2c1ccc(Nc2ncc(C(F)(F)F)c(NCCCN3CCOCCC3=O)n2)c(C2CC2)c1", "25 to 100 nM"]
]}

---

System: ULK kinase
ASSAY_TEXT: pATG13 levels of mutant KRas A549 cells after treatment with ULK inhibitors in combination with trametinib (ELISA)
Format: cell-based, human
COND: A549 (KRAS mutant) lung cancer cells, 250 nM trametinib, overnight, pS318-ATG13
PROPERTY_LABEL: IC50

{"columns": ["MOLECULE", "PROPERTY_LABEL", "OBSERVED_MEASUREMENT"],
 "data": [
  ["Cc1cc(N2CCNCC2)ccc1Nc1ncc(C(F)(F)F)c(NCCCN2CCOCCC2=O)n1 [Example 75]", "IC50", "0.1 to 0.3 µM"],
  ["CCc1cc(N2CCN(C)CC2)ccc1Nc1cc(NCCCN2CCOCCC2=O)c(C(F)(F)F)cn1 [Example 92]", "IC50", "0.3 to 0.6 µM"],
  ["O=C1CCOCCN1CCCNc1nc(Nc2ccc(N3CCN4CCC[C@@H]4C3)cc2C2CC2)ncc1C(F)(F)F [Example 107]", "IC50", "0.01 to 0.1 µM"],
  ["CN1CCN(c2ccc(Nc3ncc(C(F)(F)F)c(NCCCN4CCCOC4=O)n3)c(C3CC3)c2)CC1 [Example 41]", "IC50", "0.01 to 0.1 µM"],
  ["CN1CCN(c2ccc(Nc3cc(NCCCN4CCCOC4=O)c(C(F)(F)F)cn3)cc2)CC1 [Example 102]", "IC50", "0.1 to 0.3 µM"],
  ["Cc1cc(N2CCN(C)CC2)ccc1Nc1ncc(C(F)(F)F)c(NCCCN2CCCCC2=O)n1 [Example 20]", "IC50", "0.3 to 0.6 µM"],
  ["CCc1cc(N2CCN(CC)CC2)ccc1Nc1ncc(C(F)(F)F)c(NCCCN2CCCCC2=O)n1 [Example 12]", "IC50", "0.01 to 0.1 µM"],
  ["CCc1cc(N2CC3CCC(C2)N3C)ccc1Nc1ncc(C(F)(F)F)c(NCCCN2CCOCCC2=O)n1 [Example 74]", "IC50", "0.01 to 0.1 µM"],
  ["O=C1OCCCN1CCCNc1nc(Nc2ccc(N3CCNCC3)cc2C2CC2)ncc1C(F)(F)F [Example 99]", "IC50", "0.01 to 0.1 µM"],
  ["CCN1CCN(c2ccc(Nc3ncc(C(F)(F)F)c(NCCCN4CCOCCC4=O)n3)c(C(C)C)c2)CC1 [Example 73]", "IC50", "0.1 to 0.3 µM"],
  ["CCc1cc(N2CCN(C)CC2)ccc1Nc1ncc(C(F)(F)F)c(NCCCN2CCCOCC2=O)n1 [Example 54]", "IC50", "0.01 to 0.1 µM"],
  ["CCc1cc(N2CCN(C)CC2)ccc1Nc1ncc(Cl)c(NCCCN2CCCOCC2=O)n1 [Example 58]", "IC50", "0.1 to 0.3 µM"],
  ["CN1CCN(c2ccc(Nc3ncc(Cl)c(NCCCN4CCCCC4=O)n3)c(C3CC3)c2)CC1 [Example 27]", "IC50", "0.1 to 0.3 µM"],
  ["CC(C)c1cc(N2CCN(C)CC2)ccc1Nc1ncc(Cl)c(NCCCN2CCOCCC2=O)n1 [Example 88]", "IC50", "0.3 to 0.6 µM"],
  ["CCc1cc(N2CCOCC2)ccc1Nc1ncc(Cl)c(NCCCN2CCCOCC2=O)n1 [Example 57]", "IC50", "> 0.6 µM"],
  ["CN1C[C@@H]2C[C@H]1CN2c1ccc(Nc2ncc(C(F)(F)F)c(NCCCN3CCCOC3=O)n2)c(C2CC2)c1 [Example 117]", "IC50", "0.1 to 0.3 µM"],
  ["CN1CCN(c2ccc(Nc3ncc(Br)c(NCCCN4CCOCCC4=O)n3)c(C3CC3)c2)CC1 [Example 81]", "IC50", "0.1 to 0.3 µM"],
  ["Cc1cc(N2CCNCC2)ccc1Nc1ncc(C(F)(F)F)c(NCCCN2CCCCC2=O)n1 [Example 16]", "IC50", "0.01 to 0.1 µM"],
  ["CN(C)C1CN(c2ccc(Nc3ncc(C(F)(F)F)c(NCCCN4CCCCC4=O)n3)c(C3CC3)c2)C1 [Example 126]", "IC50", "0.1 to 0.3 µM"],
  ["Cc1cc(N2CCN(C3CCC3)CC2)ccc1Nc1ncc(C(F)(F)F)c(NCCCN2CCCCC2=O)n1 [Example 21]", "IC50", "0.3 to 0.6 µM"],
  ["CN1C[C@@H]2C[C@H]1CN2c1ccc(Nc2ncc(C(F)(F)F)c(NCCCN3CCOCCC3=O)n2)c(C2CC2)c1 [Example 116]", "IC50", "0.1 to 0.3 µM"],
  ["CCc1cc(N2CC3CCC(C2)N3)ccc1Nc1ncc(C(F)(F)F)c(NCCCN2CCOCCC2=O)n1 [Example 150]", "IC50", "0.1 to 0.3 µM"],
  ["CN1CCN(c2ccc(Nc3ncc(C(F)(F)F)c(NCCCN4CCOCCC4=O)n3)c(C3CC3)c2)CC1 [Example 70]", "IC50", "0.01 to 0.1 µM"],
  ["CCc1cc(N2CCN(C)CC2)ccc1Nc1ncc(Cl)c(NCCCN2CCOCCC2=O)n1 [Example 80]", "IC50", "> 0.6 µM"],
  ["CC(=O)N1CCN(c2ccc(Nc3ncc(C(F)(F)F)c(NCCCN4CCCCC4=O)n3)c(C3CC3)c2)CC1 [Example 36]", "IC50", "> 0.6 µM"],
  ["CCc1cc(N2CCN(C)CC2)c(F)cc1Nc1ncc(C(F)(F)F)c(NCCCN2CCOCCC2=O)n1 [Example 86]", "IC50", "0.01 to 0.1 µM"],
  ["CN1CCN(c2ccc(Nc3ncc(C(F)(F)F)c(NCCCN4CCOCCC4=O)n3)c(C3CCCC3)c2)CC1 [Example 112]", "IC50", "0.1 to 0.3 µM"],
  ["CN1CCN(c2ccc(Nc3ncc(C(F)(F)F)c(NCCCN4CCOCCC4=O)n3)c(Br)c2)CC1 [Example 131]", "IC50", "0.1 to 0.3 µM"],
  ["CCc1cc(N2CCN(C)CC2)ccc1Nc1ncc(Br)c(NCCCN2CCCOC2=O)n1 [Example 44]", "IC50", "0.01 to 0.1 µM"],
  ["CCc1cc(N2CCN(C)CC2)ccc1Nc1ncc(C#N)c(NCCCN2CCOCCC2=O)n1 [Example 129]", "IC50", "0.3 to 0.6 µM"],
  ["CCc1cc(N2CCN3CCC[C@@H]3C2)ccc1Nc1ncc(C(F)(F)F)c(NCCCN2CCCOC2=O)n1 [Example 106]", "IC50", "0.01 to 0.1 µM"]
]}
